test: inhibitors of the yeast RAM network, pilot screen, dse1pr::URA3 reporter, 5-FOA selection (AID 869);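 further: 0% = DMSO wells with no growth and 100% = 10 µM 1-NA-PP1 with full growth; RAM network block rescues cells from 5-FOA so hits raise OD615 growth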; settings: S. cerevisiae dse1pr::URA3 5-FOA growth, OD615, 2 d; at 10 µM; hits give high values; strain carries analog-sensitive mutant Cbk1 kinase
The source made the active and inactive calls.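 How the source made its calls: active means inhibition over a set limit, the all-compound mean plus 3 SD, in both replicate runs; inconclusive means over that limit in just one replicate run; inactive means at or under that limit in both runs.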
Parameter: inhibition. Scope: all listed entries.

COMPOUND: N=c1n(-c2ccccc2)c(O)cc(=O)n1-c1ccccc1
inhibition: 0.73% (inactive)
//
COMPOUND: Cc1ccn2c(-c3csc(NCc4ccco4)n3)c(C)nc2c1
inhibition: 3.51% (inactive)
//
COMPOUND: Cc1nc2sc(C(c3ccco3)N3CCN(c4ccc(F)cc4)CC3)c(O)n2n1 (stereo unspecified)
inhibition: 1.52% (inactive)
//
COMPOUND: CC(C)C12CN3CC(C(C)C)(CN(C1)C31C(=O)Nc3ccccc31)C2=O (stereo unspecified)
inhibition: 1.05% (inactive)
//
COMPOUND: COCC(=O)NC(C)c1nc2ccccc2[nH]1 (stereo unspecified)
inhibition: 0.975% (inactive)
//
COMPOUND: c1cnc(N2CCSCC2)nc1
inhibition: 0.69% (inactive)
//
COMPOUND: CCn1cc(C(=O)NCc2cccnc2)c2cc(OC)c(OC)cc2c1=O
inhibition: 1.67% (inactive)
//
COMPOUND: CCC(=O)N1CCc2cc(Br)cc(S(=O)(=O)NCc3ccco3)c21
inhibition: 1.7% (inactive)
//
COMPOUND: CCc1cc(Br)ccc1N1C(=O)C2CC=CCC2C1=O (stereo unspecified)
inhibition: 1.2% (inactive)
//
COMPOUND: O=C1NCCCC1C(=O)N1CCN(C(=O)c2ccco2)CC1 (stereo unspecified)
inhibition: -0.03% (inactive)
//
COMPOUND: CSC1=NCCN1C(=O)C(C)Oc1ccccc1 (stereo unspecified)
inhibition: 0.34% (inactive)
//
COMPOUND: Cc1ccc(-n2nnc3c(=O)n(CC(=O)NCc4ccco4)cnc32)cc1
inhibition: 3.36% (inactive)
//
COMPOUND: C=CCSC1=N/C(=C\c2ccc3c(c2)OCO3)C(=O)S1
inhibition: 4.59% (inactive)
//
COMPOUND: CCc1ccc(NC(=O)CSc2nnc(Cn3c(=O)sc4ccccc43)n2C)cc1
inhibition: 2.96% (inactive)
//
COMPOUND: O=C(NCCN1C(=O)C2C3C=CC(C3)C2C1=O)Nc1ccccc1O (stereo unspecified)
inhibition: 1.5% (inactive)
//
COMPOUND: COc1ccc(-c2n[nH]c(C(F)(F)F)c2-c2cc3ccccc3o2)c(O)c1
inhibition: -1.46% (inactive)
//
COMPOUND: CCn1c(CNC(=O)C(C)(C)C)nc2ccccc21
inhibition: 1.73% (inactive)
//
COMPOUND: Cc1cc(SCC(=O)OCC(=O)N2CCN(C(=O)c3ccco3)CC2)c(C)cc1Br
inhibition: 0.31% (inactive)
//
COMPOUND: CC(=O)Nc1cccc(N2C(=O)CC(Cc3ccccc3)C2=O)c1 (stereo unspecified)
inhibition: 0.52% (inactive)
//
COMPOUND: C(=C\CSc1nnnn1-c1ccccc1)/CSc1nnnn1-c1ccccc1
inhibition: 3.83% (inactive)
//
COMPOUND: O=C1CSC(=S)N1Cc1cccnc1
inhibition: 0.82% (inactive)
//
COMPOUND: O=C(NCc1nc2ccccc2[nH]1)c1cccs1
inhibition: 2.04% (inactive)
//
COMPOUND: CCOc1ccc(N(CC(=O)NC2CCCCCC2)S(=O)(=O)c2c(C)noc2C)cc1
inhibition: 3.02% (inactive)
//
COMPOUND: Cc1ccc(S(=O)(=O)NC(=O)Nn2c(C)nnc2C)cc1
inhibition: 0.75% (inactive)
//
COMPOUND: CCCN(CCC)S(=O)(=O)c1ccc(C(=O)NCc2ccc3c(c2)OCO3)cc1
inhibition: 2.21% (inactive)
//
COMPOUND: Cc1ccc(-c2nc(CS(=O)CC(=O)NCCC(C)C)c(C)o2)cc1 (stereo unspecified)
inhibition: 1.14% (inactive)
//
COMPOUND: Cc1cccc(-n2c(CNC(=O)c3ccccc3)nnc2SCC(=O)Nc2nccs2)c1
inhibition: 1.17% (inactive)
//
COMPOUND: C=C(C)CC1N(c2cccc(OC)c2)C(=O)C2C(C(=O)O)C3C=CC21O3 (stereo unspecified)
inhibition: -0.415% (inactive)
//
COMPOUND: Cn1c(=O)c2c(nc(NCCc3ccccc3)n2Cc2ccc(F)cc2)n(C)c1=O
inhibition: 1.03% (inactive)
//
COMPOUND: CC(=O)Nc1cc(OC(=O)c2ccco2)cc(OC(=O)c2ccco2)c1
inhibition: 1.36% (inactive)
//
COMPOUND: COC(=O)CCc1nc2ccccc2[nH]c1=O
inhibition: 1.4% (inactive)
//
COMPOUND: CCN(CC)S(=O)(=O)c1cc(Br)ccc1OC
inhibition: 0.72% (inactive)
//
COMPOUND: CCS(=O)(=O)NCCc1csc(-c2cccnc2)n1
inhibition: 2.48% (inactive)
//
COMPOUND: CCCOC(=O)c1cccc(NC(=O)C(C)(C)C)c1
inhibition: -0.725% (inactive)
//
COMPOUND: COc1ccc(-c2cn3c(C)c(C(=O)NCc4ccc5c(c4)OCO5)sc3n2)cc1
inhibition: 3.06% (inactive)
//
COMPOUND: COc1cccc(/C=C2\N=C(SC)SC2=O)c1OC
inhibition: 3.8% (inactive)
//
COMPOUND: Cc1onc(-c2ccccc2)c1C(=O)NC(C)C
inhibition: 0.105% (inactive)
//
COMPOUND: NC(=O)C1CCN(c2nc(C3CC3)nc3c2nnn3Cc2ccccc2Cl)CC1
inhibition: 3.41% (inactive)
//
COMPOUND: Cc1ccc(SCCNC(=O)C(CO)(CO)CO)cc1
inhibition: 0.935% (inactive)
//
COMPOUND: CCN(c1ccccc1)c1cc(C)nc2nc(C)nn12
inhibition: 1.6% (inactive)
//
COMPOUND: CC(C)CC(=O)Nc1ccc(C(=O)COc2ccc(-c3nnco3)cc2)cc1
inhibition: 0.965% (inactive)
//
COMPOUND: CC(=O)c1cccc(NC(=O)c2cc(C)no2)c1
inhibition: 1.26% (inactive)
//
COMPOUND: CCOC(=O)c1cc2c(=O)n3cccc(C)c3nc2n(CCCOC)c1=NC(=O)c1cccnc1
inhibition: 0.515% (inactive)
//
COMPOUND: Cc1ccc2c(c1)C(c1ccc(F)cc1)N(C(=O)C1CC1)CC(=O)N2 (stereo unspecified)
inhibition: -0.015% (inactive)
//
COMPOUND: O=C(CNS(=O)(=O)c1cccc2nsnc12)NCc1ccc(Cl)cc1
inhibition: 0.415% (inactive)
//
COMPOUND: O=C(NCC1CCCO1)c1ccc2c(c1)C(=O)N(C1CCCCC1)C2=O (stereo unspecified)
inhibition: 3.77% (inactive)
